- Read-out: Human Leukocyte Antigen - DR isotype (HLADR), HLA-DRA (gene 3122)
- run description: BSK_BE3C_HLADR: BioMAP Diversity Plus: BE3C Assay for Human Leukocyte Antigen - DR isotype (HLADR) Biomarker Activity (AID 2283032)
- measurement context: primary human bronchial epithelial cells; actives raise or lower the signal
- Protocol: BSK_BE3C is a cell-based, multiplexed-readout assay that uses bronchial epithelial cell, a human lung primary cell, with measurements taken at 24 hours after chemical dosing in a 96-well plate.BSK_BE3C_HLADR is an assay component measured in the BSK_BE3C assay. It measures HLA-DR antibody related to regulation of gene expression using ELISA technology.Data from the assay component BSK_BE3C_HLADR was analyzed into 1 assay endpoint. […]
Active and inactive are the calls of the source. How the source made its calls: active means hit-call score of the fitted dose curve at least 0.9, where 1 is the maximum; inactive means score below 0.9.
Outcome codes: 1 (yes) = active, 0 (no) = inactive

>>> answer_label("O=C(Nc1ccc([N+](=O)[O-])cc1Cl)c1cc(Cl)ccc1O")
"1 (yes)"
>>> answer_label("CCCCC(CC)COC(=O)c1ccccc1C(=O)O (configuration not stated)")
"0 (no)"
>>> answer_label("COC(=O)c1ccc(CNS(C)(=O)=O)cc1S(=O)(=O)NC(=O)Nc1nc(OC)cc(OC)n1")
"0 (no)"
>>> answer_label("N[C@@H](Cc1cc(I)c(Oc2ccc(O)c(I)c2)c(I)c1)C(=O)O")
"0 (no)"
>>> answer_label("C=CCOC(Cn1ccnc1)c1ccc(Cl)cc1Cl (configuration not stated)")
"0 (no)"
>>> answer_label("C[C@]12C[C@H](O)[C@H]3[C@@H](CCC4=CC(=O)CC[C@@]43C)[C@@H]1CC[C@@H]2C(=O)CO")
"0 (no)"
>>> answer_label("CCCN(CCC)c1c([N+](=O)[O-])cc(C(F)(F)F)c(N)c1[N+](=O)[O-]")
"1 (yes)"
>>> answer_label("C#CCOC(=O)[C@@H](C)Oc1ccc(Oc2ncc(Cl)cc2F)cc1")
"0 (no)"
>>> answer_label("CCCOC(=O)NCCCN(C)C")
"1 (yes)"
>>> answer_label("CCOC(=O)C(C)Oc1ccc(Oc2cnc3cc(Cl)ccc3n2)cc1 (configuration not stated)")
"0 (no)"
>>> answer_label("CCC(O)=C1C(=O)CC(C(=O)O)CC1=O (configuration not stated)")
"0 (no)"
>>> answer_label("COC(=O)c1ccccc1C(=O)O")
"0 (no)"
>>> answer_label("CCCCCCC(C)OC(=O)COc1nc(F)c(Cl)c(N)c1Cl (configuration not stated)")
"0 (no)"
>>> answer_label("CCCOC(=O)c1ccc(C(=O)OCCC)nc1")
"0 (no)"
>>> answer_label("O=C(c1ccc(O)cc1O)c1ccc(O)cc1O")
"0 (no)"
>>> answer_label("CCOC(=O)C(C)Oc1ccc(Oc2nc3ccc(Cl)cc3o2)cc1 (configuration not stated)")
"1 (yes)"
>>> answer_label("C[C@]12CC[C@@H]3c4ccc(O)cc4C[C@@H](CCCCCCCCCS(=O)CCCC(F)(F)C(F)(F)F)[C@H]3[C@@H]1CC[C@@H]2O (some centres not stated)")
"0 (no)"

* * *

- run description: TOX21_p53_BLA_p3_viability: Viability Assessment in the Tox21 HCT-116 p53 Agonism Beta-lactamase Assay, Phase 3 (AID 2283593);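 further: cells exposed to compound for 16 h before reading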
Inconclusive results are not listed. Calls of active or inactive are those of the source. Rule for the calls: active = hit-call score of the fitted dose curve at least 0.9, where 1 is the maximum; inconclusive = response in the unintended direction; inactive = score below 0.9.
Outcome codes: 1.0 (active), 0.0 (inactive)

>>> answer_label("C[C@]12CC[C@@H]3c4ccc(O)cc4C[C@@H](CCCCCCCCCS(=O)CCCC(F)(F)C(F)(F)F)[C@H]3[C@@H]1CC[C@@H]2O (stereo partly specified)")
0.0
>>> answer_label("C[C@]12C[C@H](O)[C@H]3[C@@H](CCC4=CC(=O)CC[C@@]43C)[C@@H]1CC[C@@H]2C(=O)CO")
0.0
>>> answer_label("COC(=O)c1ccc(I)cc1S(=O)(=O)NC(=O)Nc1nc(C)nc(OC)n1")
0.0
>>> answer_label("c1ccc(Nc2ccccc2)cc1")
0.0
>>> answer_label("Cc1nn(C)c(Oc2ccccc2)c1C=NOCc1ccc(C(=O)OC(C)(C)C)cc1")
0.0
>>> answer_label("CCCCOC(=O)[C@@H](C)Oc1ccc(Oc2ccc(C(F)(F)F)cn2)cc1")
0.0
>>> answer_label("CCOC(=O)c1ccc(O)cc1")
0.0
>>> answer_label("CCCCC(CC)COC(=O)c1ccccc1C(=O)O (stereo unspecified)")
0.0
>>> answer_label("CCCOC(=O)NCCCN(C)C")
0.0
>>> answer_label("CN(C)C(=O)Nc1ccc(Cl)c(Cl)c1")
0.0
>>> answer_label("CC(C)(C)[C@@H](O)[C@@H](Cc1ccc(Cl)cc1)n1cncn1")
0.0
>>> answer_label("N[C@@H](Cc1cc(I)c(Oc2ccc(O)c(I)c2)c(I)c1)C(=O)O")
0.0
>>> answer_label("C#CCOC(=O)[C@@H](C)Oc1ccc(Oc2ncc(Cl)cc2F)cc1")
0.0
>>> answer_label("CCCN(CCC)c1c([N+](=O)[O-])cc(C(F)(F)F)c(N)c1[N+](=O)[O-]")
1.0
>>> answer_label("CC(C)(c1ccc(O)cc1)c1ccc(O)cc1")
0.0
>>> answer_label("CCOC(=O)NCCOc1ccc(Oc2ccccc2)cc1")
0.0
>>> answer_label("CCOC(=O)C(C)Oc1ccc(Oc2nc3ccc(Cl)cc3o2)cc1 (stereo unspecified)")
0.0
>>> answer_label("C#C[C@]1(O)CC[C@H]2[C@@H]3CCC4=CC(=O)CC[C@@H]4[C@H]3CC[C@@]21CC")
0.0
>>> answer_label("CCCOC(=O)c1ccc(C(=O)OCCC)nc1")
0.0
>>> answer_label("CC(=O)[C@H]1CC[C@H]2[C@@H]3CCC4=CC(=O)CC[C@]4(C)[C@H]3CC[C@]12C")
0.0
>>> answer_label("CCN(Cc1c(F)cccc1Cl)c1c([N+](=O)[O-])cc(C(F)(F)F)cc1[N+](=O)[O-]")
0.0

* * *

- Read-out: Human Leukocyte Antigen - DR isotype (HLADR), HLA-DRA (gene 3122)
- run description: BSK_3C_HLADR: BioMAP Diversity Plus: 3C Assay for Human Leukocyte Antigen - DR isotype (HLADR) Biomarker Activity (AID 2283019);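 on Outcome: ELISA of cell-surface HLA-DR on HUVEC 24 h after dosing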
- measurement context: primary human endothelial cells (HUVEC); actives raise or lower the signal
Active and inactive are the calls of the source. Rule for the calls: active = hit-call score of the fitted dose curve at least 0.9, where 1 is the maximum; inactive = score below 0.9.
Outcome codes: TRUE (active), FALSE (inactive)

>>> answer_label("COC(=O)c1cccc(C)c1S(=O)(=O)NC(=O)Nc1nc(OCC(F)(F)F)nc(N(C)C)n1")
"FALSE"
>>> answer_label("O=C(O)C1(C(=O)Nc2ccc(Cl)cc2Cl)CC1")
"TRUE"
>>> answer_label("O=C(O)c1ccccc1")
"FALSE"
>>> answer_label("C[C@]12C[C@H](O)[C@H]3[C@@H](CCC4=CC(=O)CC[C@@]43C)[C@@H]1CC[C@@H]2C(=O)CO")
"FALSE"
>>> answer_label("CCCN(CCC)C(=O)SCC")
"FALSE"
>>> answer_label("CSC(=O)c1cccc2nnsc12")
"FALSE"
>>> answer_label("CC1(C)C(C=C(Cl)Cl)C1C(=O)OCc1cccc(Oc2ccccc2)c1 (stereo unspecified)")
"TRUE"
>>> answer_label("COC(=O)c1ccc(I)cc1S(=O)(=O)NC(=O)Nc1nc(C)nc(OC)n1")
"FALSE"
>>> answer_label("Cc1nn(C)c(Oc2ccccc2)c1C=NOCc1ccc(C(=O)OC(C)(C)C)cc1")
"TRUE"
>>> answer_label("c1ccc(Nc2ccccc2)cc1")
"TRUE"
>>> answer_label("CC(C)(c1ccc(O)cc1)c1ccc(O)cc1")
"FALSE"

* * *

- run description: BSK_3C_TissueFactor: BioMAP Diversity Plus: 3C Assay for Tissue Factor Biomarker Activity (AID 2282997)
- measurement context: BioMAP 3C HUVEC, tissue factor biomarker readout; actives raise or lower the signal
Calls of active or inactive are those of the source. The calls were made as follows: active = hit-call score of the fitted dose curve at least 0.9, where 1 is the maximum; inactive = score below 0.9.
Outcome codes: T (active), F (inactive)

>>> answer_label("CCOC(=O)C(C)Oc1ccc(Oc2nc3ccc(Cl)cc3o2)cc1 (configuration not stated)")
"F"
>>> answer_label("CC(=O)S[C@@H]1CC2=CC(=O)CC[C@]2(C)[C@H]2CC[C@@]3(C)[C@@H](CC[C@@]34CCC(=O)O4)[C@H]12")
"T"
>>> answer_label("O=C(Nc1ccc([N+](=O)[O-])cc1Cl)c1cc(Cl)ccc1O")
"F"
>>> answer_label("COc1nc(C)nc(NC(=O)NS(=O)(=O)c2ccccc2OCCCl)n1")
"F"
>>> answer_label("S=C([S-])NCCNC(=S)[S-].[Mn+2]")
"F"
>>> answer_label("CCCCCOC(=O)COc1cc(N2C(=O)C3=C(CCCC3)C2=O)c(F)cc1Cl")
"F"
>>> answer_label("OB(O)O")
"F"
>>> answer_label("COC(=O)c1c(Cl)nn(C)c1S(=O)(=O)NC(=O)Nc1nc(OC)cc(OC)n1")
"F"
>>> answer_label("CCN(Cc1c(F)cccc1Cl)c1c([N+](=O)[O-])cc(C(F)(F)F)cc1[N+](=O)[O-]")
"F"
>>> answer_label("COC(=O)CSc1cc(N=c2sc(=O)n3n2CCCC3)c(F)cc1Cl")
"F"
>>> answer_label("CCCN(CCC)C(=O)SCC")
"F"
>>> answer_label("COC(=O)c1cccc(C)c1S(=O)(=O)NC(=O)Nc1nc(OCC(F)(F)F)nc(N(C)C)n1")
"F"
>>> answer_label("CCOC(=O)COc1cc(-n2ncc(C(F)(F)F)c(C)c2=O)c(F)cc1Cl")
"F"
>>> answer_label("CN(C)C(=O)Nc1ccc(Cl)c(Cl)c1")
"F"
>>> answer_label("C#C[C@]1(O)CC[C@H]2[C@@H]3CCC4=CC(=O)CC[C@@H]4[C@H]3CC[C@@]21CC")
"F"
>>> answer_label("CSC(=O)c1cccc2nnsc12")
"F"
>>> answer_label("CC1(C)C(C=C(Cl)Cl)C1C(=O)OCc1cccc(Oc2ccccc2)c1 (configuration not stated)")
"F"
>>> answer_label("CCC(O)=C1C(=O)CC(C(=O)O)CC1=O (configuration not stated)")
"F"
>>> answer_label("N[C@@H](Cc1cc(I)c(Oc2ccc(O)c(I)c2)c(I)c1)C(=O)O")
"F"
>>> answer_label("CC(=O)[C@H]1CC[C@H]2[C@@H]3CCC4=CC(=O)CC[C@]4(C)[C@H]3CC[C@]12C")
"T"
>>> answer_label("c1ccc(Nc2ccccc2)cc1")
"F"
>>> answer_label("COC(=O)c1ccccc1C(=O)O")
"F"

All values here come from PubChem BioAssay (EPA / NIEHS).
